src = patent US7998940B2

Test system: rabbit vWF A1 domain (SEQ ID NO 6)
Sequence (as listed by the source): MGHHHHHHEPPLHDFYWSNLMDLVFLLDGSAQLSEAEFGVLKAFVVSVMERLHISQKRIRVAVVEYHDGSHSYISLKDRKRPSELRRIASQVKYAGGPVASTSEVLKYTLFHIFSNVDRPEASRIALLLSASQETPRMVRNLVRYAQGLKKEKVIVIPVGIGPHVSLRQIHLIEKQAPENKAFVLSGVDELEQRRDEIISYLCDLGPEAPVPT
assayInfo: 3-point dot blot screen, rabbit vWF A1 domain
Assay type: binding
studyConditions: 3-point dot blot screen, 20 nM rabbit vWF A1 domain; ratio of fraction of aptamer bound with target protein to fraction bound without protein
readoutName: Screen Rabbit/No Protein
Answers are plain numbers.

| molecule | readoutName | assayValue |
| --- | --- | --- |
| AMX238.G4: DNA SELEX 2 aptamer clone (nucleic acid, DNA, backbone not given here, DNA SELEX 2 aptamer clone) DNA: CTACCTACGATCTGACTAGCTTGTCGCACTTTTGGTTGGTCTGGTTGGTTCTAAGTGCGCTTACTCTCATGTAGTTCC | Screen Rabbit/No Protein | 1.39 |
| AMX236.E2: DNA SELEX 2 aptamer clone (nucleic acid, DNA, backbone not given here, DNA SELEX 2 aptamer clone) CTACCTACGATCTGACTAGCGGAATGAGTATGCTGATGGATTGCTCAGGTCTGCTGGCTGCTTACTCTCATGTAGTTCC | Screen Rabbit/No Protein | 3.59 |
| AMX236.E6: DNA SELEX 2 aptamer clone (nucleic acid, DNA, backbone not given here, DNA SELEX 2 aptamer clone) CTACCTACGATCTGACTAGCTTGGTAGCGACCCTGTGGAGCTGCGGTTTGGTCGACGTCAGCTTACTCTCATGTAGTTCC | Screen Rabbit/No Protein | 1.49 |

Query string: Report Screen Rabbit/No Protein for AMX237.C4: DNA SELEX 2 aptamer clone (nucleic acid, DNA, backbone not given here, DNA SELEX 2 aptamer clone) DNA: CTACCTACGATCTGACTAGCTTTCAGTCTTCCACATTTATAGGGTTTGGCATTGGGTCTGGCTTACTCTCATGTAGTTCC please.
Result string: 1.31
